B1: library; a variant is named by its letters at N, in order (parent)
chain: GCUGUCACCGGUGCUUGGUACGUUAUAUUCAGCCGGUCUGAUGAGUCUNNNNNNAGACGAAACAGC

- Variants of: B1
- Measurement notes: normalized RNA/DNA level with ligand (relative to sTRSVctl = 100) (log10 (% of sTRSVctl)); HEK293T overexpressing SLC46A1; ligand concentration (+) RNA-Seq: 6 mM; higher = less ribozyme self-cleavage, higher mRNA level
- Test settings: with (6R,S)-folinic acid; ligand present: yes
Outcome measure: normalized RNA/DNA level with ligand (log10)
// return just the number, without any unit appended

[
  {
    "Sequence string": "GCUGUCACCGGUGCUUGGUACGUUAUAUUCAGCCGGUCUGAUGAGUCUCGCCAAAGACGAAACAGC",
    "Value measured": 2.02
  },
  {
    "Sequence string": "GCUGUCACCGGUGCUUGGUACGUUAUAUUCAGCCGGUCUGAUGAGUCUAAGGCCAGACGAAACAGC",
    "Value measured": 2.04
  },
  {
    "Sequence string": "GCUGUCACCGGUGCUUGGUACGUUAUAUUCAGCCGGUCUGAUGAGUCUUUGUCUAGACGAAACAGC",
    "Value measured": 2.09
  },
  {
    "Sequence string": "GCUGUCACCGGUGCUUGGUACGUUAUAUUCAGCCGGUCUGAUGAGUCUGAGGCAAGACGAAACAGC",
    "Value measured": 2.05
  },
  {
    "Sequence string": "GCUGUCACCGGUGCUUGGUACGUUAUAUUCAGCCGGUCUGAUGAGUCUCACGGUAGACGAAACAGC",
    "Value measured": 1.95
  }
]

Recorded normalized RNA/DNA level with ligand (log10) (variant GCUGUCACCGGUGCUUGGUACGUUAUAUUCAGCCGGUCUGAUGAGUCUGCUGAUAGACGAAACAGC ): 2.01

The measured normalized RNA/DNA level with ligand (log10) associated with GCUGUCACCGGUGCUUGGUACGUUAUAUUCAGCCGGUCUGAUGAGUCUCUCCAUAGACGAAACAGC reads 2.03

// sample GCUGUCACCGGUGCUUGGUACGUUAUAUUCAGCCGGUCUGAUGAGUCUUUACAUAGACGAAACAGC , its normalized RNA/DNA level with ligand (log10) was 1.98

GCUGUCACCGGUGCUUGGUACGUUAUAUUCAGCCGGUCUGAUGAGUCUCAGCGCAGACGAAACAGC yielded normalized RNA/DNA level with ligand (log10) of 2.01

Looking up GCUGUCACCGGUGCUUGGUACGUUAUAUUCAGCCGGUCUGAUGAGUCUUUUUGUAGACGAAACAGC , I found its normalized RNA/DNA level with ligand (log10) recorded as 2

Form field normalized RNA/DNA level with ligand (log10), entry GCUGUCACCGGUGCUUGGUACGUUAUAUUCAGCCGGUCUGAUGAGUCUAAUGAAAGACGAAACAGC : 2

Field normalized RNA/DNA level with ligand (log10) (entry GCUGUCACCGGUGCUUGGUACGUUAUAUUCAGCCGGUCUGAUGAGUCUGUCGCGAGACGAAACAGC ) reads 2

Given item GCUGUCACCGGUGCUUGGUACGUUAUAUUCAGCCGGUCUGAUGAGUCUUAACGGAGACGAAACAGC , the value recorded as its normalized RNA/DNA level with ligand (log10) is 1.95

Per the record, GCUGUCACCGGUGCUUGGUACGUUAUAUUCAGCCGGUCUGAUGAGUCUAAUGGCAGACGAAACAGC has normalized RNA/DNA level with ligand (log10) of 2.03

Per the record, GCUGUCACCGGUGCUUGGUACGUUAUAUUCAGCCGGUCUGAUGAGUCUUCGGGAAGACGAAACAGC has normalized RNA/DNA level with ligand (log10) of 2.03

response.value for GCUGUCACCGGUGCUUGGUACGUUAUAUUCAGCCGGUCUGAUGAGUCUGCCGAUAGACGAAACAGC (field: normalized RNA/DNA level with ligand (log10)) = 2.05

Reference for the values: the supplement of paper PMC6757056
